assay.text: self-splicing fitness, log relative to wild type (ln ratio); higher = more splicing; Tetrahymena group I intron in knt gene, E. coli kanamycin selection, DiMSum; sequences stand for … in CUCUCU…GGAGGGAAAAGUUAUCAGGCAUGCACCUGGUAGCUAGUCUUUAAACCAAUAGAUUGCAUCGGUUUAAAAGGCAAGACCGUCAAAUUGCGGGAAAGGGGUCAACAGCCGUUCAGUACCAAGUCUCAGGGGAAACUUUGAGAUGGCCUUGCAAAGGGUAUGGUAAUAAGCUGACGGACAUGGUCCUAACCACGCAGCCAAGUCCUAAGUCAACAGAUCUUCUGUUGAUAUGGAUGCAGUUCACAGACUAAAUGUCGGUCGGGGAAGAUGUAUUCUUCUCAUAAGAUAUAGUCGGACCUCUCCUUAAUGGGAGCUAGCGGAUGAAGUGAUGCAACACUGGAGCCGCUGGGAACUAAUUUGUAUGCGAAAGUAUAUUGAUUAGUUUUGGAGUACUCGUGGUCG;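 also: selection with 25 µg/mL kanamycin versus none on LB agar overnight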
cond: 30 °C
# self-splicing fitness (ln) annotations
Write the number on its own, no unit after it.

Example entries and their recorded answers appear below.
CCGCAGCAAUAUUACGCCCU ... -3.34
GAUCAGCAAUAUUACGCUGC ... -3.18
UGUCAGCAAUAUUACGUUUU ... -3.83
GACCAGCAAUAUUACGUUAC ... -1.65
GUUAAGCAAUAUUACGCACU ... -0.8

For `GAUAAGCAAUAUUACGUAGG` , what is its reported self-splicing fitness (ln)?
-3.01

Which self-splicing fitness (ln) is reported for this sequence? `GCCCAGCAAUAUUACGUGCG`
-3.42

If you can, please state the reported self-splicing fitness (ln) value of `CAAAAGCAAUAUUACGUCGU` .
-3.83

Would you kindly share the measured self-splicing fitness (ln) for `GAGAAGCAAUAUUACGUAAA` ?
-2.16

Data request, read-out self-splicing fitness (ln), for `UCGGAGCAAUAUUACGGAAC`
-3.36

Dear colleague, I am looking for the recorded self-splicing fitness (ln) of the following sequence: `AGUAAGCAAUAUUACGGAGG`
-2.9

* * *

# reported self-splicing fitness (ln); entries follow
assay.text: self-splicing fitness, log relative to wild type (ln ratio); higher = more splicing; Tetrahymena group I intron in knt gene, E. coli kanamycin selection, DiMSum; sequences stand for … in CUCUCU…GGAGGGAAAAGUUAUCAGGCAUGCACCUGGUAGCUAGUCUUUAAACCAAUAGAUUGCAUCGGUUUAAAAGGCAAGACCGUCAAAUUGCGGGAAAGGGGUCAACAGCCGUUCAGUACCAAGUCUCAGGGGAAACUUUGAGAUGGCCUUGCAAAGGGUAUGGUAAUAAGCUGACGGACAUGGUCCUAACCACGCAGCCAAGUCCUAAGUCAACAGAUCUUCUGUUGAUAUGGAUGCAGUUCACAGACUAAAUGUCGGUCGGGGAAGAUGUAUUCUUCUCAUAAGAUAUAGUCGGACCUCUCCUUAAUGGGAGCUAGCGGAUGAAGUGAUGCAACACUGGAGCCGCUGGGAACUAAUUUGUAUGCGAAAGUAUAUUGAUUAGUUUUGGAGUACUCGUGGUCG
cond: 30 °C
Give the figure only, with no unit attached.

Before answering, review these 5 worked examples.
UUUAAGCAAUAUUACGAAGC ... -1.88
CGUCAGCAAUAUUACGCCUG ... -0.469
CGGGAGCAAUAUUACGCCAC ... -3.63
GAUGAGCAAUAUUACGACAC ... -1.25
AAGAAGCAAUAUUACGAUGA ... -0.962

Item under review: `AGUAAGCAAUAUUACGGUAC` . Reported self-splicing fitness (ln)?
-2.95

Reported self-splicing fitness (ln) for `CGGUAGCAAUAUUACGCUGG` : what is it?
-0.433

Please look up its self-splicing fitness (ln): `CGCCAGCAAUAUUACGCCUU`
-3.11

Consider the sequence shown here: `CACUAGCAAUAUUACGUCGA` What is its recorded self-splicing fitness (ln)?
-1.58

# lookup: self-splicing fitness (ln) of `AGGUAGCAAUAUUACGUCUA`
-0.666

* * *

assay.text: self-splicing fitness, log relative to wild type (ln ratio); higher = more splicing; Tetrahymena group I intron in knt gene, E. coli kanamycin selection, DiMSum; sequences stand for … in CUCUCU…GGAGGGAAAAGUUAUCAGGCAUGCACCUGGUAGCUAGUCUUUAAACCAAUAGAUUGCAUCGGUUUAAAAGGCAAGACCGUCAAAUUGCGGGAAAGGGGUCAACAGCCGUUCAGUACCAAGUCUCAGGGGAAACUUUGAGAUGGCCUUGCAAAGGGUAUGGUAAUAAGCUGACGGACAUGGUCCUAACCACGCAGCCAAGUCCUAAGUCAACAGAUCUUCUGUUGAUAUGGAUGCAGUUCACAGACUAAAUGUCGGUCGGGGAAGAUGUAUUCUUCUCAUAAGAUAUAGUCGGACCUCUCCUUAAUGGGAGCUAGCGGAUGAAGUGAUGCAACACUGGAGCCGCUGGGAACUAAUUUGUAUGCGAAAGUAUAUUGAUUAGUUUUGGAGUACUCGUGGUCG
cond: 30 °C
Please enter satisfied where self-splicing fitness (ln) is greater than or equal to -2, and not satisfied where it is lower.

Worked set:
GAGUAGCAAUAUUACGUCCC ... satisfied
AAACAGCAAUAUUACGUGUC ... not satisfied

Please check the record `CACUAGCAAUAUUACGUAUU` and state if its self-splicing fitness (ln) is at or above -2.
not satisfied

* * *

assay.text: self-splicing fitness, log relative to wild type (ln ratio); higher = more splicing; Tetrahymena group I intron in knt gene, E. coli kanamycin selection, DiMSum; sequences stand for … in CUCUCU…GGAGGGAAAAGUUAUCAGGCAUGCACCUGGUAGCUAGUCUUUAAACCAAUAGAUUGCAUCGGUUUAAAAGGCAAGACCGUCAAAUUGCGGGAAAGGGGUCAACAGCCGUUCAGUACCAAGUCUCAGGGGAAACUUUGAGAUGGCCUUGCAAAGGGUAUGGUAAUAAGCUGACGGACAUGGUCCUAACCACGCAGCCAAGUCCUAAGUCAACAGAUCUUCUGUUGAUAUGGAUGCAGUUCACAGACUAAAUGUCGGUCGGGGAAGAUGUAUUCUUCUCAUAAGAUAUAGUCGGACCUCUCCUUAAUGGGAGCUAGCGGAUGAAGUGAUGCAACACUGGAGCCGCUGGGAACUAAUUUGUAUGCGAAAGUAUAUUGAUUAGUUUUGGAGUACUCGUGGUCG
cond: 37 °C
Note to self: values exactly at -2 are Met. So self-splicing fitness (ln) at or above -2 is Met, below is Not met.

Confirm if self-splicing fitness (ln) reported for the sequence `ACAAAGCAAUAUUACGUACA` is -2 or above.
Met

For this sequence, is measured self-splicing fitness (ln) -2 or higher? `GCAUAGCAAUAUUACGACCU`
Met

* * *

assay.text: self-splicing fitness, log relative to wild type (ln ratio); higher = more splicing; Tetrahymena group I intron in knt gene, E. coli kanamycin selection, DiMSum; sequences stand for … in CUCUCU…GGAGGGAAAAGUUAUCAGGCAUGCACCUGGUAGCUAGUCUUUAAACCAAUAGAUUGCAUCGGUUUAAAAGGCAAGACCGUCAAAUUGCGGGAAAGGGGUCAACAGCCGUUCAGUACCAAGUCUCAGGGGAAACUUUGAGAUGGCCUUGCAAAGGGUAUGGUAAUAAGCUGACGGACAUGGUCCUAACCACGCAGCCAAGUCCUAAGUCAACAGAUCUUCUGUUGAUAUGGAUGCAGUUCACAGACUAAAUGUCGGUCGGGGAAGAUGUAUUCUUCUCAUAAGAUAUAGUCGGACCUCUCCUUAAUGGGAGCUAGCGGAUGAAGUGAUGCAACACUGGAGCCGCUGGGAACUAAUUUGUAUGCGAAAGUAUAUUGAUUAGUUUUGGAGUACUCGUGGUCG
cond: 30 °C
observed.property: self-splicing fitness (ln)
The reply should be a number, written without any unit.

GCCCAGCAAUAUUACGUAGA ... -0.69
CACUAGCAAUAUUACGUAGU ... -3.45
CUAGAGCAAUAUUACGUAUG ... -0.333
CAGAAGCAAUAUUACGAAAU ... -3.92
GUCUAGCAAUAUUACGUCUG ... -2.49
CACCAGCAAUAUUACGUACA ... -3.16

Returns the measured self-splicing fitness (ln) for the input sequence. Input: `AAAGAGCAAUAUUACGCCUA`
-2.22

Value lookup for self-splicing fitness (ln); key = `ACGAAGCAAUAUUACGGAUU`
-1.86

Fill in the blank: the reported self-splicing fitness (ln) of `GGGUAGCAAUAUUACGUUAA` is ____.
-1.72

* * *

assay.text: self-splicing fitness, log relative to wild type (ln ratio); higher = more splicing; Tetrahymena group I intron in knt gene, E. coli kanamycin selection, DiMSum; sequences stand for … in CUCUCU…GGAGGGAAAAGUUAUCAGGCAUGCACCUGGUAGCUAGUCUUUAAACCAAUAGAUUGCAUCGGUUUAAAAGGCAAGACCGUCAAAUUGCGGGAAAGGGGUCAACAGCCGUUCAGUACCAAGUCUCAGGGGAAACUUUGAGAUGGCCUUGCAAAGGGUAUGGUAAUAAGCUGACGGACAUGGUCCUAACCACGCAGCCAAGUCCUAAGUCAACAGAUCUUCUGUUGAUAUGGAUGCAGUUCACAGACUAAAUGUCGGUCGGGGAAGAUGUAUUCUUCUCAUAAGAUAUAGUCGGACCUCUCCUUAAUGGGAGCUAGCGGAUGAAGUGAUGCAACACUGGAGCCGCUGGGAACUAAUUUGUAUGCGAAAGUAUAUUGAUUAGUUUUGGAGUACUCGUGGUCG
cond: 30 °C
observed.property: self-splicing fitness (ln)
Could you respond with only the numeric value?

Some solved entries appear below for comparison.
CCAAAGCAAUAUUACGUGGC ... -1.62
GUCCAGCAAUAUUACGAUAG ... -3.53
UCUGAGCAAUAUUACGUACU ... -2.66
CUAGAGCAAUAUUACGAACA ... -4.05

Find the recorded self-splicing fitness (ln) belonging to `CCCUAGCAAUAUUACGUAGA` and report it.
-4.06

Give the measured self-splicing fitness (ln) of `CGUAAGCAAUAUUACGUACA` .
-1.59

Fill blank: measured self-splicing fitness (ln) of the sequence `CCUCAGCAAUAUUACGCAAU` is ____.
-3.87

Which value of self-splicing fitness (ln) has been reported for `UUGAAGCAAUAUUACGCACC` in the records?
-2.62

Reported self-splicing fitness (ln) for `GCUCAGCAAUAUUACGUGGU` : what is it?
-1.88

What self-splicing fitness (ln) value was documented for this sequence, `UGCCAGCAAUAUUACGGACU` ?
-0.709

Which self-splicing fitness (ln) is listed for `GUGCAGCAAUAUUACGCAUG` ?
-3.11

Using the record for `AAGCAGCAAUAUUACGGUCA` , report its self-splicing fitness (ln).
-1.19

If you can, please state the reported self-splicing fitness (ln) value of `ACAUAGCAAUAUUACGUCAU` .
-3.16

Entry under review: `GAUGAGCAAUAUUACGUACG` . Reported self-splicing fitness (ln)?
-2.59

Name the reported self-splicing fitness (ln) value associated with the sequence `CGUUAGCAAUAUUACGCCUG`
-0.175

All values here come from the supplement of paper PMC7877785.
